- experimental.target: human GLP-1 receptor (Homo sapiens, UniProt P43220)
- Sequence (P43220 24-463): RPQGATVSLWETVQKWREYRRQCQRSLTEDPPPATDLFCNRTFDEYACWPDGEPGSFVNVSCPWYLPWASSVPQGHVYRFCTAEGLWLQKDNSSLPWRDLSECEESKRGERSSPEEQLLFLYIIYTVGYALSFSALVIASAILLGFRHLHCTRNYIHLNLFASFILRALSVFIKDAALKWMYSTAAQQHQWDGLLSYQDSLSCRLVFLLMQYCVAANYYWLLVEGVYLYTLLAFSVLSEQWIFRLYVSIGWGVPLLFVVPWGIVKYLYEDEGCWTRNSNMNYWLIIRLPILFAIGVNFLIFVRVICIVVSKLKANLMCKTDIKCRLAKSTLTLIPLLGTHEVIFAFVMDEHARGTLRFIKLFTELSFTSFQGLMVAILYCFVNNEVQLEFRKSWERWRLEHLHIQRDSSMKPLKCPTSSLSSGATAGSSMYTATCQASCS
- protocol.text: cAMP production assay in CHO cells expressing human GLP-1 receptor
- Format: cell-based
- reported.conditions: Table 18; maximum activation compared to GLP-1
measurement.kind: % Max Effect (%)

>  <molecule>
HS9_DSB7_V19T: HS9_DSB7 with peptide point mutation V19T; SEQ ID NO: 453 (protein) HGEGTFTSDLSKQMEEECTRLFIEWLKNGGPSSGAPPPGCGGGGGSGGGGSGGGGSADIQMTQSPSSLSASVGDRVTITCQASQDVKTAVAWYQQKPGKAPKLLIYSASYRYTGVPSRFSGSGSGTDFTFTISSLQPEDIATYYCQQRYSLWRTFGQGTKLEIK

>  <measurement.kind>
% Max Effect

>  <value>
95

$$$$
>  <molecule>
HS9_DSB7_V19S: HS9_DSB7 with peptide point mutation V19S; SEQ ID NO: 454 (protein) HGEGTFTSDLSKQMEEECSRLFIEWLKNGGPSSGAPPPGCGGGGGSGGGGSGGGGSADIQMTQSPSSLSASVGDRVTITCQASQDVKTAVAWYQQKPGKAPKLLIYSASYRYTGVPSRFSGSGSGTDFTFTISSLQPEDIATYYCQQRYSLWRTFGQGTKLEIK

>  <measurement.kind>
% Max Effect

>  <value>
94

$$$$
>  <molecule>
HS9_DSB7_V19G: HS9_DSB7 with peptide point mutation V19G; SEQ ID NO: 455 (protein) HGEGTFTSDLSKQMEEECGRLFIEWLKNGGPSSGAPPPGCGGGGGSGGGGSGGGGSADIQMTQSPSSLSASVGDRVTITCQASQDVKTAVAWYQQKPGKAPKLLIYSASYRYTGVPSRFSGSGSGTDFTFTISSLQPEDIATYYCQQRYSLWRTFGQGTKLEIK

>  <measurement.kind>
% Max Effect

>  <value>
93

$$$$
>  <molecule>
HS9_DSB7_L26Q: HS9_DSB7 with peptide point mutation L26Q; SEQ ID NO: 465 (protein) HGEGTFTSDLSKQMEEECVRLFIEWQKNGGPSSGAPPPGCGGGGGSGGGGSGGGGSADIQMTQSPSSLSASVGDRVTITCQASQDVKTAVAWYQQKPGKAPKLLIYSASYRYTGVPSRFSGSGSGTDFTFTISSLQPEDIATYYCQQRYSLWRTFGQGTKLEIK

>  <measurement.kind>
% Max Effect

>  <value>
34

$$$$
